target under test: T1, PACAP-R3 (human, UniProt P41587 24-438)
T1 sequence (looked up): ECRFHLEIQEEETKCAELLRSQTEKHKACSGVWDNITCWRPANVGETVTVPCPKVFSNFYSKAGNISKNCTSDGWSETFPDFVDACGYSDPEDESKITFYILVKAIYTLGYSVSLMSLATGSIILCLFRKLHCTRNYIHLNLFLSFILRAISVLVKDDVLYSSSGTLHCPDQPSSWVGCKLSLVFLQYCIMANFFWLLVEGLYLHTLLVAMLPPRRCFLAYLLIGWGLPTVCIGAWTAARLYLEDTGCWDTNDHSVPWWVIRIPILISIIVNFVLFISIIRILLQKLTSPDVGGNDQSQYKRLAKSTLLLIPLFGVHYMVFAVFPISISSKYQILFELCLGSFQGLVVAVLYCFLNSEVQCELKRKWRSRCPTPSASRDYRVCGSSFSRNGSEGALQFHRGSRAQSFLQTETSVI
test description: cell-based or functional assay
List of R3 EC50 values.
assay endpoint: R3 EC50

{"columns": ["binder", "result"],
 "data": [
  ["HSDAVFTDNYTRLRKQMAAKKYLNSIKNKP [R3P164]", "0.3 nM"],
  ["HSDAVFTDNYTRLRKQVAAKKYLQSILNK [R3P93]", "0.14 nM"],
  ["HSDAVFTDNYTRLRKQMAAKKYLNSIKNIR [R3P140]", "0.3 nM"],
  ["HSDAVFTDNYTRLRKQMAFKKYLNSIKNKR [R3P99]", "1 nM"],
  ["HSDAVFTDNYTRLRKQMAAKKYLNSIKNKI [R3P159]", "0.5 nM"],
  ["HSDAVFTDNYTRLRKQMAAKKYLNSIPNKR [R3P125]", "2 nM"],
  ["HSDAVFTDNYTRLRKQMAAKKYLNSICNKR [R3P116]", "1 nM"],
  ["HSDAVFTDNYTRLRKQMACKKYLNSIKNKR [R3P94]", "0.09 nM"],
  ["HSDAVFTDNYTRLRKQMAAKKYLNSIKNTR [R3P148]", "0.3 nM"],
  ["HSDAVFTDNYTRLRKQMAAKKYLNSIFNKR [R3P119]", "0.5 nM"],
  ["HSDAVFTDNYTRLRKQMAAKKYLNSIQNKR [R3P126]", "1 nM"],
  ["HSDAVFTDNYTRLRKQMAAKKYLNSINNKR [R3P124]", "0.2 nM"],
  ["HSDAVFTDNYTRLRKQMAAKKYLNSIKNSR [R3P147]", "0.2 nM"],
  ["HSDAVFTDNYTRLRKQMAAKKYLNSISNKR [R3P128]", "0.3 nM"]
]}
